B1: MYBL2 (parent)
chain: VKKSCWTEEEDRIICEAHKVLGNR

Variants of: B1
Test: protein stability index of a GFP-peptide fusion (GPS, HEK-293T) (PSI 1-6); higher = more stable;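 also: lentivirally expressed fusions sorted by FACS into six bins by GFP to DsRed ratio, PSI derived from sequencing read proportions per bin multiplied by bin number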
Settings: c terminus: a fixed tail appended
Label criterion not met if protein stability index falls below 3; label criterion met in every other case.

*Q* Could you verify whether the entry VKKSCWTEEEDRIICEAHKVVGNR [L21V] shows protein stability index of no less than 3?
*A* criterion met

*Q* Could you verify whether the entry VKKSCWTEEEDRIICEAHKVLVNR [G22V] shows protein stability index of no less than 3?
*A* criterion not met

*Q* Could you verify whether the entry VKKSCWTEEEDRIICEAHKVLFNR [G22F] shows protein stability index of no less than 3?
*A* criterion not met

*Q* Could you verify whether the entry VKKSCWTEEEDRIICEAHKFLGNR [V20F] shows protein stability index of no less than 3?
*A* criterion not met

*Q* Could you verify whether the entry VKKSCWTEEEDRIICEANKVLGNR [H18N] shows protein stability index of no less than 3?
*A* criterion met

*Q* Could you verify whether the entry VKKSCWTEEEDRIICQAHKVLGNR [E16Q] shows protein stability index of no less than 3?
*A* criterion met

*Q* Could you verify whether the entry VKKSCWTEEEDRIICEAHKVPGNR [L21P] shows protein stability index of no less than 3?
*A* criterion met

*Q* Could you verify whether the entry VKKSCWTEEEDRIICEAHNVLGNR [K19N] shows protein stability index of no less than 3?
*A* criterion met

*Q* Could you verify whether the entry VKKSCWTEEEDRIICEAHKVLGNT [R24T] shows protein stability index of no less than 3?
*A* criterion met

*Q* Could you verify whether the entry VKKSCWTEEEDRICCEAHKVLGNR [I14C] shows protein stability index of no less than 3?
*A* criterion met

*Q* Could you verify whether the entry VKKSCWTEEEDRIICEAHKWLGNR [V20W] shows protein stability index of no less than 3?
*A* criterion not met

*Q* Could you verify whether the entry VKKSCWTEEEDRIISEAHKVLGNR [C15S] shows protein stability index of no less than 3?
*A* criterion met

*Q* Could you verify whether the entry VKKSCWTEEEDRIMCEAHKVLGNR [I14M] shows protein stability index of no less than 3?
*A* criterion met

*Q* Could you verify whether the entry VKKSCWTEEEDRIICEAHAVLGNR [K19A] shows protein stability index of no less than 3?
*A* criterion met

*Q* Could you verify whether the entry VKKSCWTEEEDRIGCEAHKVLGNR [I14G] shows protein stability index of no less than 3?
*A* criterion not met

*Q* Could you verify whether the entry VKKSCWTEEEDRIICEAHKDLGNR [V20D] shows protein stability index of no less than 3?
*A* criterion met

*Q* Could you verify whether the entry VKKSCWTEEEDRIICEAHYVLGNR [K19Y] shows protein stability index of no less than 3?
*A* criterion not met

*Q* Could you verify whether the entry VKKSCWTESEDRIICEAHKVLGNR [E9S] shows protein stability index of no less than 3?
*A* criterion not met

*Q* Could you verify whether the entry VKKSCWTEEEDRIILEAHKVLGNR [C15L] shows protein stability index of no less than 3?
*A* criterion met

*Q* Could you verify whether the entry VKKSCWTEEEDRIICEAHKVMGNR [L21M] shows protein stability index of no less than 3?
*A* criterion met

These entries and their values trace back to the supplement of paper PMC10567573.
